Source of measurements: the supplement of paper PMC12494721

Tested on: Klebsiella aerogenes DSM 30053
method: growth (OD595) fold change vs plate DMSO controls (fold change (ratio)); higher = more growth
test conditions: 20 µM; incubation time: 27 h, anaerobic, 37 °C
endpoint label: growth
Give bare numbers.

# example entries with known answers
- CC(=O)OCC(=O)[C@H]1CC[C@H]2[C@@H]3CC[C@H]4C[C@H](O)CC[C@]4(C)[C@H]3C(=O)C[C@]12C [Alfadolone acetate]: 0.997
- CC(=O)OCC1=C(C(=O)O)N2C(=O)[C@@H](N)[C@H]2SC1: 0.979
- CC(C)(C)C(O)(CCc1ccc(Cl)cc1)Cn1cncn1 (stereo not given): 1.01
- Fc1ccc(C(OCCN2CCN(CCCc3ccccc3)CC2)c2ccc(F)cc2)cc1: 1

Okay, now this compound:
Identify growth associated with the compound OC(Cc1ccccc1Cl)(Cn1nc[nH]c1=S)C1(Cl)CC1 (stereo not given)
0.969

---

Tested on: Escherichia coli IAI1
method: growth (OD595) fold change vs plate DMSO controls (fold change (ratio)); higher = more growth
test conditions: 20 µM; incubation time: 27 h, anaerobic, 37 °C
Structures can show the parent of a compound that is named as a salt.
endpoint label: growth
Answers are plain numbers.

The following compounds have reported results that may help.
• C#CCN1C(=O)COc2cc(F)c(N3C(=O)C4=C(CCCC4)C3=O)cc21 = 0.989
• COCC(=O)N(c1c(C)cccc1C)[C@H](C)C(=O)OC = 1.01

I'm hoping you can list growth for every compound here, please.
1. NCC(O)c1ccc(O)cc1 (stereo not given) [Octopamine hydrochloride]
2. C[N+]1(C)CCOC(O)(c2ccc(-c3ccc(C4(O)C[N+](C)(C)CCO4)cc3)cc2)C1 (stereo not given) [Hemicholinium bromide]
3. C1CCc2nnnn2CC1 [Pentylenetetrazole]

1.03
0.992
0.976

---

System: Klebsiella aerogenes DSM 30053
method: growth (OD595) fold change vs plate DMSO controls (fold change (ratio)); higher = more growth
test conditions: 20 µM; incubation time: 27 h, anaerobic, 37 °C
Counter-ions that a name gives are not always drawn.
endpoint label: growth

These recorded examples may help you get a feel for the data.
• CCN(CC)N=O [NDEA (N-nitrosodiethylamine)] = 1.09
• CC(C)CC(C)c1sccc1NC(=O)c1cn(C)nc1C(F)(F)F (stereo not given) = 1.01
• CCC1(c2ccc(N)cc2)CCC(=O)NC1=O (stereo not given) [Glutethimide, para-amino] = 0.979
• CN1C(=O)COc2c(C(=O)NC3CN4CCC3CC4)cc(Cl)cc21 (stereo not given) [Azasetron hydrochloride] = 0.585

Moving on to another compound below.
For the compound CN(C)[C@@H]1C(=O)C(C(N)=O)=C(O)[C@@]2(O)C(=O)C3=C(O)c4c(O)ccc(Cl)c4[C@@](C)(O)[C@H]3C[C@@H]12 [Chlortetracycline hydrochloride] , give its measured growth value.
0.0706

---

I'd be grateful if you could share measured growth for these entries.
Tested on: Escherichia coli IAI1
method: growth (OD595) fold change vs plate DMSO controls (fold change (ratio)); higher = more growth
test conditions: 20 µM; incubation time: 27 h, anaerobic, 37 °C
Structures can show the parent of a compound that is named as a salt.
One number for each entry.

These solved cases illustrate the format of a correct answer.
- S=C(NC1CCCCC1)N1CCC(c2cnc[nH]2)CC1 [Thioperamide maleate]: 1.03
- O=c1c2ccccc2[se]n1-c1ccccc1 [Ebselen]: 1.12
- CCC1(c2ccc(N)cc2)CCC(=O)NC1=O (centres undefined) [Glutethimide, para-amino]: 1.01
- O=c1[nH]c2ccccc2n1CCCN1CCC(n2c(=O)[nH]c3cc(Cl)ccc32)CC1 [Domperidone]: 0.963
- O=[N+]([O-])O[C@H]1CO[C@H]2[C@@H]1OC[C@H]2O[N+](=O)[O-] [Isosorbide dinitrate]: 1.09
- CC(C1CC1)C(O)(Cn1cncn1)c1ccc(Cl)cc1 (mixture of isomers): 0.991
- c1ccc2c(c1)-c1cccc3cccc-2c13 [Fluoranthene]: 0.967
- COCc1cnc(C2=NC(C)(C(C)C)C(=O)N2)c(C(=O)O)c1 (centres undefined): 1.04

Required: growth, one value per compound below.
1. C=CC[C@]1(O)CC[C@H]2[C@@H]3CCC4=CC(=O)CCC4=C3C=C[C@@]21C [Altrenogest]
2. CN1C(=O)CCS(=O)(=O)C1c1ccc(Cl)cc1 (centres undefined) [Chlormezanone]
3. CCCN(CCC)C(=O)SCc1ccccc1
4. CC(=O)O[C@H]1C[C@H](O[C@H]2[C@@H](O)C[C@H](O[C@H]3[C@@H](O)C[C@H](O[C@H]4CC[C@@]5(C)[C@H](CC[C@@H]6[C@@H]5C[C@@H](O)[C@]5(C)[C@@H](C7=CC(=O)OC7)CC[C@]65O)C4)O[C@@H]3C)O[C@@H]2C)O[C@H](C)[C@H]1O[C@@H]1O[C@H](CO)[C@@H](O)[C@H](O)[C@H]1O [Lanatoside C]
5. CCC(C)c1ccccc1OC(=O)NC (centres undefined)
6. COCC(=O)N(c1c(C)cccc1C)C(C)C(=O)OC (centres undefined)
7. Cc1cc(C(C#N)c2ccc(Cl)cc2)c(Cl)cc1NC(=O)c1cc(I)cc(I)c1O (centres undefined) [Closantel]

1. 0.987
2. 0.97
3. 1
4. 0.957
5. 0.988
6. 1.02
7. 1.08

Could you report growth for every entry in the following list?
1. CCOC(=O)c1cncn1[C@H](C)c1ccccc1 [Etomidate]
2. CCCC(C)C1(CC)C(=O)NC(=O)NC1=O (centres undefined) [Pentobarbital]
3. C[N+](C)(C)CCCCCCCCCC[N+](C)(C)C [Decamethonium bromide]
4. CCC(C)(c1ccc(O)cc1)c1ccc(O)cc1 [Bisphenol B]

1: 1.22; 2: 1.08; 3: 0.999; 4: 1.04

For every record below, what is its growth?
1. COP(=S)(OC)Oc1nc(Cl)c(Cl)cc1Cl
2. N#CCNC(=O)c1cnccc1C(F)(F)F
3. c1ccc2c(c1)Nc1ccccc1S2 [Phenothiazine]
4. N#CC(CCc1ccc(Cl)cc1)(Cn1cncn1)c1ccccc1 (centres undefined)
5. c1cc2c3c(cccc3c1)CC2 [Acenaphthene]

1: 0.989; 2: 1; 3: 0.906; 4: 1.08; 5: 1.01

---

For each entry below, report its fold change of Histamine concentration value.
System: Klebsiella aerogenes DSM 30053
method: fold change of Histamine concentration vs plate DMSO controls (fold change (ratio)); higher = more amine produced, active = hit call of the paper (significant change in both replicates, either direction)
test conditions: 20 µM; incubation time: 27 h, anaerobic, 37 °C
Give bare numbers.

- CO/C=C(/C(=O)OC)c1ccccc1COc1cccc(C(F)(F)F)n1: 0.977
- COc1ccc(-c2ccccc2)cc1NNC(=O)OC(C)C: 0.998
- Oc1cc(Cl)ccc1Oc1ccc(Cl)cc1Cl: 0.0779

Each of the following entries comes with a recorded value; kindly state fold change of Histamine concentration for each.
1. CC1(C(=O)Nc2ccc(O)c(Cl)c2Cl)CCCCC1
2. COCC(=O)N(c1c(C)cccc1C)[C@H](C)C(=O)OC
3. O=C(O)C(F)(F)C(F)(F)C(F)(F)C(F)(F)C(F)(F)C(F)(F)F
4. CCSC(C)CC1CC(=O)C(/C(CC)=N/OC/C=C/Cl)=C(O)C1 (mixture of isomers)
5. Cc1cccc2sc3nncn3c12
6. O=C1C2(Cl)C3(Cl)C4(Cl)C(Cl)(Cl)C5(Cl)C3(Cl)C1(Cl)C5(Cl)C24Cl (configuration not stated)
7. Cc1cc(C)c(C2=C(OC(=O)CC(C)(C)C)C3(CCCC3)OC2=O)c(C)c1
8. CC(=O)NC1CCSC1=O (configuration not stated)

1. 0.992
2. 1
3. 0.997
4. 1.02
5. 0.973
6. 1.07
7. 1
8. 0.819

---

Assignment: determine reported fold change of Putrescine concentration for the given compounds.
Tested on: Klebsiella aerogenes DSM 30053
method: fold change of Putrescine concentration vs plate DMSO controls (fold change (ratio)); higher = more amine produced, active = hit call of the paper (significant change in both replicates, either direction)
test conditions: 20 µM; incubation time: 27 h, anaerobic, 37 °C
Where a name gives a salt, the structure may show the parent alone.
Give bare numbers.

In the examples that follow, each entry is paired with its recorded fold change of Putrescine concentration.
* CC1(C(=O)Nc2ccc(O)c(Cl)c2Cl)CCCCC1 | 0.99
* c1ccc2c(c1)-c1cccc3cccc-2c13 | 1.01
* CN1C(=O)COc2c(C(=O)NC3CN4CCC3CC4)cc(Cl)cc21 (stereo unspecified) [Azasetron hydrochloride] | 0.996
* CN1CCN(C(=O)OC2c3nccnc3C(=O)N2c2ccc(Cl)cn2)CC1 (stereo unspecified) | 1.02
* CCc1nn(C)c(C(=O)NCc2ccc(Oc3ccc(C)cc3)cc2)c1Cl | 1
* CC(C)N(CCC(C(N)=O)(c1ccccc1)c1ccccn1)C(C)C (stereo unspecified) [Disopyramide] | 0.996
* CN/C(=N\[N+](=O)[O-])NCc1cnc(Cl)s1 | 1
* CCOC(=O)CC(SP(=S)(OC)OC)C(=O)OCC (stereo unspecified) | 0.994
* CC(C)OC(=O)Nc1cccc(Cl)c1 | 0.984
* CC1(C)C(C(=O)OC(C#N)c2cccc(Oc3ccccc3)c2)C1(C)C (stereo unspecified) | 0.987

Batch lookup, fold change of Putrescine concentration per entry.
1. COc1ccc(C(CN(C)C)C2(O)CCCCC2)cc1 (stereo unspecified)
2. CC[C@@H](CO)NC(=O)[C@@H]1C=C2c3cccc4[nH]cc(c34)C[C@H]2N(C)C1 [Methylergometrine maleate]
3. N#Cc1sc2c(=O)c3ccccc3c(=O)c=2sc1C#N
4. C1CCc2nnnn2CC1
5. CCC(C)(c1ccc(O)cc1)c1ccc(O)cc1
6. CC(=O)OCC(=O)[C@H]1CC[C@H]2[C@@H]3CC[C@H]4C[C@H](O)CC[C@]4(C)[C@H]3C(=O)C[C@]12C [Alfadolone acetate]
7. O=c1c2ccccc2[se]n1-c1ccccc1

1: 1; 2: 1.01; 3: 1.01; 4: 0.975; 5: 0.994; 6: 0.981; 7: 0.959

Hi there! I need fold change of Putrescine concentration for each item below, if you can.
1. CNC(=O)Oc1cccc2ccccc12
2. C[C@]12C/C(=C/O)C(=O)C[C@@H]1CC[C@@H]1[C@@H]2CC[C@@]2(C)[C@H]1CC[C@]2(C)O
3. CN/C(=N/CC1CCOC1)N[N+](=O)[O-] (stereo unspecified)
4. Cc1cc(C(C#N)c2ccc(Cl)cc2)c(Cl)cc1NC(=O)c1cc(I)cc(I)c1O (stereo unspecified)

1. 1.01
2. 1.02
3. 1.02
4. 1.03
